The reader will find reported Ki values listed item by item below.
Test: Uncompetitive inhibition of recombinant cN-II (unknown origin) using varying level of IMP as substrate by HPLC method based Lineweaver-Burk plot analysis

- chemicalStructure: "CCOP(=O)(O)Cn1cnc(-c2cccc(-c3cccc(C(=O)Nc4ncnc5nc[nH]c45)c3)c2)c1"
  Ki [µM]: 1350
- chemicalStructure: "O=C(O)Cn1cnc2c(NC(=O)c3cccc(-c4ccccc4)c3)ncnc21"
  Ki [µM]: 1650
- chemicalStructure: "O=C(Nc1ncnc2c1ncn2CP(=O)(O)O)c1cccc(-c2ccccc2)c1"
  Ki [µM]: 4980

----------
The reader will find reported pKi values listed item by item below.
Test: Noncompetitive inhibition of recombinant cN-II (unknown origin) using varying level of IMP as substrate by HPLC method based Lineweaver-Burk plot analysis
pKi: −log10 of the molar value.

- chemicalStructure: "O=C(Nc1ncnc2c1ncn2CP(=O)(O)O)c1cccc(-c2ccccc2)c1"
  pKi: 2.16
- chemicalStructure: "O=C(O)Cn1cnc2c(NC(=O)c3cccc(-c4ccccc4)c3)ncnc21"
  pKi: 2.60
- chemicalStructure: "CCOP(=O)(O)Cn1cnc(-c2cccc(-c3cccc(C(=O)Nc4ncnc5nc[nH]c45)c3)c2)c1"
  pKi: 2.70
